system: NCI-H526 cell line; assay: Cell viability assay for H526 cell (EZ-Cytox); format: cell-based; conditions: Homo sapiens, NCI-H526, 120 h; H526 cells, 5 days, 3000 nM to 0.46 nM
pIC50: −log10 of the molar value.
Listed below: pIC50 values for each entry.

Consider the following illustrative entries.
I would be grateful if you could share the reported pIC50 for COc1cc(C(=O)NN2CCC(N3CC4(CCN(c5ccc6c(c5)C(=O)N(C5CCC(=O)NC5=O)C6=O)CC4)C3)CC2)ccc1Nc1ncc2c(n1)N(C1CCCC1)CC(F)(F)C(=O)N2C (stereo not drawn) .
> 7.52

Recorded pIC50 for COc1cc(C(=O)N[C@H]2CC[C@H](N3CCN(CCCNc4cccc5c4C(=O)N(C4CCC(=O)NC4=O)C5=O)CC3)CC2)c(F)cc1Nc1ncc2c(n1)N(C1CCCC1)CC(F)(F)C(=O)N2C (stereo partly drawn) , please?
> 7.30

Next item in the queue.
Quick check: pIC50 of COc1cc(C(=O)NN2CCN(C(=O)CCCNc3cccc4c3C(=O)N(C3CCC(=O)NC3=O)C4=O)CC2)c(F)cc1Nc1ncc2c(n1)N(C1CCCC1)CC(F)(F)C(=O)N2C (stereo not drawn) ?
> 7.52
